Values compiled from patent US20180021429A1.

Listing: Binding amount (RU) of selected binders
Molecular target: T1, human FSTL1 (construct not stated) (human, UniProt Q12841 21-308)
T1 construct: also called human FSTL1 antigen; FSTL1 (R&D Systems, Inc. Cat#1694-FN-050)
T1 sequence: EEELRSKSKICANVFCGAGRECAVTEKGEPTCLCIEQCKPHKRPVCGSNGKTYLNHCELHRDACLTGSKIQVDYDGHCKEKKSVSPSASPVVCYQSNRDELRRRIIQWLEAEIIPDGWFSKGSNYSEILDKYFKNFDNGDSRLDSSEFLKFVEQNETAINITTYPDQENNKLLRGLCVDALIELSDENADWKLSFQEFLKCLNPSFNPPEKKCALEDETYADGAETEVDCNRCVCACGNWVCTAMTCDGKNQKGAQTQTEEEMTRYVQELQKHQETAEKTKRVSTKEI
Test: SPR (Biacore T-200), captured antibody, human FSTL1 10 µg/ml
Answer with a number only, understood to be in RU.

{"columns": ["binder", "measured_value"],
 "data": [
  ["anti-FSTL1 antibody clone #33 (chicken-mouse chimeric antibody) (antibody, mouse IgG1, kappa, V domains shown) VH: AVTLDESGGGLQTPGGGLSLVCKASGFTFSSFNMNWVRQAPGKGLEYVAEISGTGSSTYYGSAVKGRATISRDNGQSTVRLQLNNLRAEDTATYFCARGDGAYSIDAWGHGTEVIVSS VL: ASTQPSSVSANPGETVEITCSGDSSYYGWFQQKSPGSAPVTVIYDNTNRPSDIPSRFSGSKSGSTATLTITGVRAEDEAVYYCGGYDSSTYDGIFGAGTTLTVLG", 10.9]
]}

**Q:** Name the reported Binding amount (RU) value associated with the binder anti-FSTL1 antibody clone #13 (chicken-mouse chimeric antibody) (antibody, mouse IgG1, kappa, V domains shown) VH: AVTLDESGGGLQTPGGGLSLVCKASGFTFSSVTMQWVRQAPGKGLEWVASICSGSSTYYGPAVKGRATISRDNGQNTVRLQLNNLRAEDTATYYCAKIVGRGRWSCTSAAYNIDAWGHGTEVIVSS VL: ASTQPSSVSANPGETVKITCSGGGNNYGWYQQKSPGSAPVTVIYNNNNRPSNIPSRFSGSKSGSTNTLTITGVQAEDEAVYYCGSYDSSSDSGIFGAGTTLTVLG
**A:** 8.7

**Q:** Now consider anti-FSTL1 antibody clone #8-1 (chicken-mouse chimeric antibody) (antibody, mouse IgG1, kappa, V domains shown) VH: AVTLDESGGGLQTPGGALSLVCKGSGFTFSSFNMFWVRQAPGKGLEWVAGIGKDGVPKYGAAVDGRATISKDNGQSTMRLQLNNLRAEDTGTYFCAKAAGGCSYDWCGIYAGDIDTWGHGTEVIVSS VL: ASTQPSSVSANPGEAVKITCSGGSGSYYGWYQQKSPGSAPVTVIYNNNQRPSDIPSRFSGSKSGSTATLTITGVQAEDEAVYFCGGYDSSSGHGGIFGAGTTLTVLG and answer again.
**A:** 11.1
